# credit: patent US9382295B2

Below is a list of entries, each paired with its recorded pKi value.
Biological target: cyclophilin D (Cyp D) (Homo sapiens, UniProt P30405)
Sequence (P30405 30-207): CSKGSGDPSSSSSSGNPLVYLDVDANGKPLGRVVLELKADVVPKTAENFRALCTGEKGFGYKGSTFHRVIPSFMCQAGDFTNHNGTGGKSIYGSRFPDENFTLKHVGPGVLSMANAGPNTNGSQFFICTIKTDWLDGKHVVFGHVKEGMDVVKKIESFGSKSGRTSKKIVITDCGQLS
Assay: Protease-free PPIase assay, cyclophilin D
Assay type: biochemical
pKi: −log10 of the molar value. Numbered stars: 1 amine (or outer) side, 2 acyl side, 3 side chain; on linkers, the order of the positions; unused ones are H or OH. Square brackets hold non-standard residues; d marks the D form. Peptide text beside a SMILES is read from it. X6 = C[C@H](CCN1CCOC[C@H]1C)[C@@H](O)[C@H](C(=O)[*:2])N(C)[*:1]; X25 = CC(C)NCC[C@@H](C)[C@@H](O)[C@H](C(=O)[*:2])N(C)[*:1]; d(aThr) = C[C@@H](O)[C@@H](N)C(=O)O; NMeL = CN[C@@H](CC(C)C)C(=O)O; dNMeL = CN[C@H](CC(C)C)C(=O)O; dNMeV = CN[C@@H](C(=O)O)C(C)C; Hiv = CC(C)[C@H](O)C(=O)O; Sar = CNCC(=O)O

Field: example entries. Status: answers known.
{"Compound": "C/C=C/C[C@@H](C)[C@@H](O)[C@@H]1C(=O)N[C@H]([C@@H](C)O)C(=O)N(C)CC(=O)N(C)[C@@H](CC(C)C)C(=O)N[C@H](CC(C)C)C(=O)N(C)[C@H](CC(C)C)C(=O)N[C@H](C)C(=O)O[C@@H](C(C)C)C(=O)N(C)[C@H](CC(C)C)C(=O)N[C@H](CC(C)C)C(=O)N(C)[C@H](C(C)C)C(=O)N1C [Example 1, reference compound]", "Reported": 8.49}
{"Compound": "CC(C)C[C@@H]1C(=O)N[C@H](CC(C)C)C(=O)N(C)[C@H](C(C)C)C(=O)N(C)[C@H]([C@H](O)[C@H](C)CCNC(C)C)C(=O)N[C@H]([C@@H](C)O)C(=O)N(C)CC(=O)N(C)[C@@H](CC(C)C)C(=O)N[C@H](CC(C)C)C(=O)N(C)[C@H](CC(C)C)C(=O)N[C@H](C)C(=O)O[C@@H](C(C)C)C(=O)N1C [Example 37] (cyclo([Hiv][dNMeL][dL][dNMeV][X25][d(aThr)][Sar][NMeL][dL][dNMeL][dA]))", "Reported": "7.60 to 9.00"}

// CC(C)C[C@@H]1C(=O)N[C@H](CC(C)C)C(=O)N(C)[C@H](C(C)C)C(=O)N(C)[C@H]([C@H](O)[C@H](C)CCN2CCOC[C@H]2C)C(=O)N[C@H]([C@@H](C)O)C(=O)N(C)CC(=O)N(C)[C@@H](CC(C)C)C(=O)N[C@H](CC(C)C)C(=O)N(C)[C@H](CC(C)C)C(=O)N[C@H](C)C(=O)O[C@@H](C(C)C)C(=O)N1C [Example 29] (cyclo([Hiv][dNMeL][dL][dNMeV][X6][d(aThr)][Sar][NMeL][dL][dNMeL][dA])) : pKi value = 7.00 to 7.60

---

Below is a list of entries, each paired with its recorded solubility at 18 h value.
Experiment: Water solubility assay (pH 7.8 buffer)
Type: physicochemical
Details: pH 7.8
Numbered stars: 1 amine (or outer) side, 2 acyl side, 3 side chain; on linkers, the order of the positions; unused ones are H or OH. Square brackets hold non-standard residues; d marks the D form. Peptide text beside a SMILES is read from it. X9 = C[C@H](CC(=O)NCc1ccccc1)[C@@H](O)[C@H](C(=O)[*:2])N(C)[*:1]; X15 = C[C@H](CCN1CCCCC1CO)[C@@H](O)[C@H](C(=O)[*:2])N(C)[*:1]; X25 = CC(C)NCC[C@@H](C)[C@@H](O)[C@H](C(=O)[*:2])N(C)[*:1]; d(aThr) = C[C@@H](O)[C@@H](N)C(=O)O; NMeL = CN[C@@H](CC(C)C)C(=O)O; dNMeL = CN[C@H](CC(C)C)C(=O)O; dNMeV = CN[C@@H](C(=O)O)C(C)C; Hiv = CC(C)[C@H](O)C(=O)O; Sar = CNCC(=O)O

{"Compound": "CC(C)C[C@@H]1C(=O)N[C@H](CC(C)C)C(=O)N(C)[C@H](C(C)C)C(=O)N(C)[C@H]([C@H](O)[C@H](C)CCNC(C)C)C(=O)N[C@H]([C@@H](C)O)C(=O)N(C)CC(=O)N(C)[C@@H](CC(C)C)C(=O)N[C@H](CC(C)C)C(=O)N(C)[C@H](CC(C)C)C(=O)N[C@H](C)C(=O)O[C@@H](C(C)C)C(=O)N1C [Example 37] (cyclo([Hiv][dNMeL][dL][dNMeV][X25][d(aThr)][Sar][NMeL][dL][dNMeL][dA]))", "Readout Label": "solubility at 18 h", "Reported": "> 100 µM"}
{"Compound": "CC(C)C[C@@H]1C(=O)N[C@H](CC(C)C)C(=O)N(C)[C@H](C(C)C)C(=O)N(C)[C@H]([C@H](O)[C@H](C)CC(=O)NCc2ccccc2)C(=O)N[C@H]([C@@H](C)O)C(=O)N(C)CC(=O)N(C)[C@@H](CC(C)C)C(=O)N[C@H](CC(C)C)C(=O)N(C)[C@H](CC(C)C)C(=O)N[C@H](C)C(=O)O[C@@H](C(C)C)C(=O)N1C [Example 36] (cyclo([Hiv][dNMeL][dL][dNMeV][X9][d(aThr)][Sar][NMeL][dL][dNMeL][dA]))", "Readout Label": "solubility at 18 h", "Reported": "25 to 50 µM"}

Next, consider the following compound.
// CC(C)C[C@@H]1C(=O)N[C@H](CC(C)C)C(=O)N(C)[C@H](C(C)C)C(=O)N(C)[C@H]([C@H](O)[C@H](C)CCN2CCCCC2CO)C(=O)N[C@H]([C@@H](C)O)C(=O)N(C)CC(=O)N(C)[C@@H](CC(C)C)C(=O)N[C@H](CC(C)C)C(=O)N(C)[C@H](CC(C)C)C(=O)N[C@H](C)C(=O)O[C@@H](C(C)C)C(=O)N1C (stereo partly drawn) [Example 39] (cyclo([Hiv][dNMeL][dL][dNMeV][X15][d(aThr)][Sar][NMeL][dL][dNMeL][dA])) : solubility at 18 h value = > 100 µM

---

Experiment: Rat pharmacokinetics, iv and po dosing, whole blood and plasma
Assay type: in vivo
Conditions: plasma, po 10 mg/kg, mean, read-out: Cmax
Readout Label: Cmax (ng/mL)
API: value field is a number in ng/mL; no unit string.

// CC(C)CC1NC(=O)[C@H](CC(C)C)N(C)C(=O)CN(C)C(=O)C([C@@H](C)O)NC(=O)C([C@H](O)[C@H](C)CCN2CCOCC2)N(C)C(=O)C(C(C)C)N(C)C(=O)C(CC(C)C)NC(=O)C(CC(C)C)N(C)C(=O)C(C(C)C)OC(=O)C(C)NC(=O)C(CC(C)C)N(C)C1=O (stereo in doubt) : Cmax value = 328

---

Test: Water solubility assay (pH 7.8 buffer)
Assay type: physicochemical
Settings: 35 mM HEPES buffer; 35 mM HEPES pH 7.8, 1% DMSO, 25° C., 18 h; concentration at which compound remains in solution; read-out: Solubility
Experimental: ***Water Solubility Assay (Measured in pH 7.8 Buffer) The onset of precipitation, if it occurred, was detected by an increase in absorbance at 650 nm. Assay Buffer: 35 mM HEPES pH 7.8 Stock solutions of Control and Test Compounds: 10 mM in 100% DMSO 10 mM stock solutions of control and test compounds were prepared in 100% DMSO. […] After incubation the plate seals were taken off and any bubbles observed in wells removed. The plates were read on a SpectraMaxM5 with a 5 s pre-shake at 650 nm. […]
Numbered stars: 1 amine (or outer) side, 2 acyl side, 3 side chain; on linkers, the order of the positions; unused ones are H or OH. Square brackets hold non-standard residues; d marks the D form. Peptide text beside a SMILES is read from it. X29 = C[C@H](CCN(C)Cc1ccccn1)[C@@H](O)[C@H](C(=O)[*:2])N(C)[*:1]; X7 = C[C@H](CCN(C)Cc1ccnn1C)[C@@H](O)[C@H](C(=O)[*:2])N(C)[*:1]; d(aThr) = C[C@@H](O)[C@@H](N)C(=O)O; NMeL = CN[C@@H](CC(C)C)C(=O)O; dNMeL = CN[C@H](CC(C)C)C(=O)O; dNMeV = CN[C@@H](C(=O)O)C(C)C; Hiv = CC(C)[C@H](O)C(=O)O; Sar = CNCC(=O)O
Readout Label: solubility at 18 h

{"Compound": "CC(C)C[C@@H]1C(=O)N[C@H](CC(C)C)C(=O)N(C)[C@H](C(C)C)C(=O)N(C)[C@H]([C@H](O)[C@H](C)CCN(C)Cc2ccnn2C)C(=O)N[C@H]([C@@H](C)O)C(=O)N(C)CC(=O)N(C)[C@@H](CC(C)C)C(=O)N[C@H](CC(C)C)C(=O)N(C)[C@H](CC(C)C)C(=O)N[C@H](C)C(=O)O[C@@H](C(C)C)C(=O)N1C [Example 5] (cyclo([Hiv][dNMeL][dL][dNMeV][X7][d(aThr)][Sar][NMeL][dL][dNMeL][dA]))", "Readout Label": "solubility at 18 h", "Reported": "50 to 75 µM"}

Next, consider the following compound.
// CC(C)C[C@@H]1C(=O)N[C@H](CC(C)C)C(=O)N(C)[C@H](C(C)C)C(=O)N(C)[C@H]([C@H](O)[C@H](C)CCN(C)Cc2ccccn2)C(=O)N[C@H]([C@@H](C)O)C(=O)N(C)CC(=O)N(C)[C@@H](CC(C)C)C(=O)N[C@H](CC(C)C)C(=O)N(C)[C@H](CC(C)C)C(=O)N[C@H](C)C(=O)O[C@@H](C(C)C)C(=O)N1C [Example 31] (cyclo([Hiv][dNMeL][dL][dNMeV][X29][d(aThr)][Sar][NMeL][dL][dNMeL][dA])) : solubility at 18 h value = 50 to 75 µM
